Tested on: MS2 coat protein
Assay: apparent KD of MS2 coat protein; designed switch direction (-1 OFF switch, 1 ON switch): -1; higher = weaker reporter binding
Details: input ligand: none
metric: apparent KD of MS2 coat protein (nM)

>>> observed_value("ACAAGCUUGUAAUGACUUAACAUGAGGAUCACCCAUGUAAAUGGAAGAACCAACUUGAUAUGAUUUACUCGUCUUAU [JR_STOV1_Sub010] (Eterna round: R97, puzzle: Sensor, turn-off variant 1)")
1030
>>> observed_value("UGCGGUAGAGGAUAUACGUAGAAUUAGAUUCAUGUAAAACUACAUGAGGAUCACCCAUGUAGAAGGCUAUCGCU [JL-ex2-4.31 Eli mod] (Eterna round: R97, puzzle: Exclusion 2)")
19.3
>>> observed_value("GUAGGUUAAGUAAGGAUAUACCUCUGGAAACAGAGGUAGAAGGUACAUGAGGAUCACCCAUGUUUCUCUUUUGC [Mod of Eli 6 - Jieux - Brourd's mod of Exclusion 4] (Eterna round: R97, puzzle: Brourd's mod of Exclusion 4)")
18.7
>>> observed_value("CUAACAUGCUGGUGAUCAUACAUGAGGAUCACCCAUGUAACAAGCUUUUUGUUCGUCUUAUAAGAUCACCAGCAUGU [Stov1/9-B3] (Eterna round: R97, puzzle: Sensor, turn-off variant 1)")
18.2
>>> observed_value("GACUAUUCGUAGGAUAUACUACUUAGCUAUGGAGUAGAAGGACGAACAUGAGGAUCACCCAUGUGGGACCCGGG [Eternabot (L2) Solution 31] (Eterna round: R97, puzzle: Exclusion 6)")
81.2
>>> observed_value("GCGCGGUGAGGAUAUGCGGCGCGCGGGCGCGGGCGGGCGCGGCAGAAGGCACAUGAGGAUCACCCAUGUGGGCG [Prefect Exclusion4] (Eterna round: R97, puzzle: Exclusion 4)")
24.2
>>> observed_value("UAGAAAGAAGUCAGGAUAUCAUGAGUUGCAGCUCAUGAGAAGGGACAUGAGGAUCACCCAUGUAACACGCCUCU [Eternabot (L2) Solution 62] (Eterna round: R97, puzzle: Brourd's mod of Exclusion 4)")
24.8
>>> observed_value("GGUCGACAUGAGGAUCACCCAUGUCAGGAUAUCGUCACUGGAGCCUCGGCUCCAGUGACGAGAAGGGAUAUGAU [E1/17-A2] (Eterna round: R97, puzzle: Exclusion 1)")
43.9
>>> observed_value("AGCAGACGAGGAUAUAGAUUUAGAUACAUGAGGAUCACCCAUGUAUAUAUGUAUUUAGAUUUAGAAGGCGUCUGCU [E5/15-A1] (Eterna round: R97, puzzle: Exclusion 5)")
219

* * *

System: MS2 coat protein
Assay: apparent KD of MS2 coat protein; designed switch direction (-1 OFF switch, 1 ON switch): -1; higher = weaker reporter binding
Conditions: input ligand: FMN 200 uM
metric: apparent KD of MS2 coat protein

>>> observed_value("AUCCGUAGGCGCACCUCACACAUGAGGAUCACCCAUGUGCCCUACAAUCGCAAGCUGUGCUCGUUGCUGGUCCCUAC [Eternabot (L1) Solution 16] (Eterna round: R97, puzzle: Sensor, turn-off variant 1)")
"45.3 nM"
>>> observed_value("UACAUGAGGAUCACCCAUGUUUUGUCGUGUAUGGUAUUUAUCUAGGAUAUCAAUUGGUUUAUUUAUGAGAAGGAGAAUAUUAAU [JMF's solution 57] (Eterna round: R96, puzzle: Exclusion NG 3)")
"36.1 nM"
>>> observed_value("UGAGCUUCAGGAUAUACGUGACGACCGUGAGGUCGAAGGUUACAUGAGGAUCACCCAUGUAGAAGGGAAGUUCU [Mat - Exclusion 2 - JL Mod - D27] (Eterna round: R97, puzzle: Exclusion 2)")
"70.8 nM"
>>> observed_value("UUAACCAGAGGAUAUGCGAAUAAAUAAAACUUUUUUUUUUAACAUGAGGAUCACCCAUGUAGAAGGCUGCAAUU [Ex2 #31] (Eterna round: R97, puzzle: Exclusion 2)")
"32 nM"
>>> observed_value("GUAGAGUCAGGAUAUACAAGAUCGAAAGAUCGGCGAUCCAUACAUGAGGAUCACCCAUGUAGAAGGGACUCUAC [Eli x2 4.003] (Eterna round: R97, puzzle: Exclusion 2)")
"560 nM"
>>> observed_value("AAUAAUCAUGUAGGAUAUGCGUGGCAAAGCUAUGCAGAAGGACAUGAGGAUCACCCAUGUUCUAGCGUCUGAGAACAGAUGCUA [Mat - Exclusion NG 1 - Mod of JL - D82] (Eterna round: R96, puzzle: Exclusion NG 1)")
"384 nM"
>>> observed_value("GGAACGACAGGAUAUACAUGAGGAUCACCCAUGUGAGGAAGAGUAAAGUGUGAAGGAGGUAGAAGGGUCAAGAA [AK-MS2ROC-r4-exclusion3-3] (Eterna round: R97, puzzle: Exclusion 3)")
"63.6 nM"
>>> observed_value("UUUUGUUCAGGAUAUGUAGAAUUUAACAUGAGGAUCACCCAUGUAGAUCCUGAAUAAACUACAGAAGGGAACAUUU [Mat - Exclusion 5 - Eli Mod - D15] (Eterna round: R97, puzzle: Exclusion 5)")
"215 nM"
>>> observed_value("AGGACAUGAGGAUCACCCAUGUAGUGAGGUGUAUCCGAAGACGAGGAUAUACAGAGGAAAUAUCUGUAGAAGGUGUUAUAAAUU [Atleusan] (Eterna round: R96, puzzle: Exclusion NG 3)")
"726 nM"
>>> observed_value("AGAGUAAUGCGAGGAUAUACAUGAGGAUCACCCAUGUGGUGGUGUGAGGCAAAGCCUCACACCAUGUAGAAGGCGCAUUACUCA [Mat - Exclusion NG 2 - Mod of JL - D21] (Eterna round: R96, puzzle: Exclusion NG 2)")
"155 nM"
>>> observed_value("GGAUGAGAGCAGGAUAUCUUAUAAAUGUAUGAAAGAGAAGGGCUCACAUGAGGAUCACCCAUGUGGUCCUAGAU [jl-ex6-4.73 jandersonlee mod] (Eterna round: R97, puzzle: Exclusion 6)")
"280 nM"
>>> observed_value("GCGCGAAGGUAGGAUAUCGACGGAUCUUCCGGCCGAGAAGGACCCACAUGAGGAUCACCCAUGUGGUGAUCCUG [eternacac ex6r4 sub10] (Eterna round: R97, puzzle: Exclusion 6)")
"17.5 nM"
